Measured cytotoxicity score (microscopic examination) of individual entries
tested on: human MRC-5 fibroblasts; test: Qualitative evaluation of cytotoxicity by microscopic examination; conditions: 4 h exposure, mean ± SD of scores
PARAMETER_MEASURED: cytotoxicity score (microscopic examination)

COMPOUND: [Cl-].[Na+] [NaCl 7.06%, NaCl]
EXPERIMENTAL_SYSTEM: human MRC-5 fibroblasts
OBSERVED: 3.0
--
COMPOUND: O=S(=O)([O-])CCS.[Na+] [Mesna 5%, Sodium 2-mercaptoethanesulfonate]
EXPERIMENTAL_SYSTEM: human MRC-5 fibroblasts
OBSERVED: 3.0
--
COMPOUND: O=S(=O)([O-])CCS.[Na+] [Mesna 10%, Sodium 2-mercaptoethanesulfonate]
EXPERIMENTAL_SYSTEM: human MRC-5 fibroblasts
OBSERVED: 3.0
--
COMPOUND: Oc1ccccc1
EXPERIMENTAL_SYSTEM: human MRC-5 fibroblasts
OBSERVED: 3.0
--
COMPOUND: [Cl-].[Na+] [NaCl 1.76%, NaCl]
EXPERIMENTAL_SYSTEM: human MRC-5 fibroblasts
OBSERVED: 3.0
--
COMPOUND: O=S(=O)([O-])CCS.[Na+] [Mesna 20%, Sodium 2-mercaptoethanesulfonate]
EXPERIMENTAL_SYSTEM: human MRC-5 fibroblasts
OBSERVED: 3.0
--
COMPOUND: [Cl-].[Na+] [NaCl 3.53%, NaCl]
EXPERIMENTAL_SYSTEM: human MRC-5 fibroblasts
OBSERVED: 3.0

* * *

test system: human MRC-5 fibroblasts; experiment: Quantitative evaluation of cytotoxicity, viability assay using MU reagent; type: cell-based; details: 24 h exposure
PARAMETER_MEASURED: percentage of cell viability compared to culture medium (100% of viability)

COMPOUND: O=S(=O)([O-])CCS.[Na+] [Mesna 10%, Sodium 2-mercaptoethanesulfonate]
EXPERIMENTAL_SYSTEM: human MRC-5 fibroblasts
OBSERVED: 1.1%
//
COMPOUND: O=S(=O)([O-])CCS.[Na+] [Mesna 20%, Sodium 2-mercaptoethanesulfonate]
EXPERIMENTAL_SYSTEM: human MRC-5 fibroblasts
OBSERVED: 18.3%
//
COMPOUND: [Cl-].[Na+] [NaCl 1.76%, NaCl]
EXPERIMENTAL_SYSTEM: human MRC-5 fibroblasts
OBSERVED: 8%
//
COMPOUND: O=S(=O)([O-])CCS.[Na+] [Mesna 5%, Sodium 2-mercaptoethanesulfonate]
EXPERIMENTAL_SYSTEM: human MRC-5 fibroblasts
OBSERVED: 1.4%
//
COMPOUND: [Cl-].[Na+] [NaCl 3.53%, NaCl]
EXPERIMENTAL_SYSTEM: human MRC-5 fibroblasts
OBSERVED: 7.2%
//
COMPOUND: Oc1ccccc1
EXPERIMENTAL_SYSTEM: human MRC-5 fibroblasts
OBSERVED: 8.5%
//
COMPOUND: [Cl-].[Na+] [NaCl 7.06%, NaCl]
EXPERIMENTAL_SYSTEM: human MRC-5 fibroblasts
OBSERVED: 7.3%

* * *

Parameter percentage of cell viability compared to culture medium (100% of viability): see the listing below.
system: human MRC-5 fibroblasts; test: Quantitative evaluation of cytotoxicity, viability assay using MU reagent; assay type: cell-based; conditions: 15 min (0.25 h) exposure
PARAMETER_MEASURED: percentage of cell viability compared to culture medium (100% of viability) (%)

COMPOUND: Oc1ccccc1 [Phenol 0.5%, Phenol]
OBSERVED: 10.9

COMPOUND: [Cl-].[Na+] [NaCl 3.53%, NaCl]
OBSERVED: 82.7

COMPOUND: [Cl-].[Na+] [NaCl 1.76%, NaCl]
OBSERVED: 88.8

COMPOUND: [Cl-].[Na+] [NaCl 7.06%, NaCl]
OBSERVED: 45.2

COMPOUND: O=S(=O)([O-])CCS.[Na+] [Mesna 10%, Sodium 2-mercaptoethanesulfonate]
OBSERVED: 62.3

COMPOUND: O=S(=O)([O-])CCS.[Na+] [Mesna 20%, Sodium 2-mercaptoethanesulfonate]
OBSERVED: −10.2

COMPOUND: O=S(=O)([O-])CCS.[Na+] [Mesna 5%, Sodium 2-mercaptoethanesulfonate]
OBSERVED: 66

* * *

Parameter percentage of cell viability compared to culture medium (100% of viability): see the listing below.
test system: human MRC-5 fibroblasts; experiment: Quantitative evaluation of cytotoxicity, viability assay using MU reagent; assay type: cell-based; conditions: 1 h exposure
PARAMETER_MEASURED: percentage of cell viability compared to culture medium (100% of viability) (%)

MOLECULE: [Cl-].[Na+] [NaCl 1.76%, NaCl]
OBSERVED: 95
//
MOLECULE: O=S(=O)([O-])CCS.[Na+] [Mesna 20%, Sodium 2-mercaptoethanesulfonate]
OBSERVED: 47.2
//
MOLECULE: O=S(=O)([O-])CCS.[Na+] [Mesna 5%, Sodium 2-mercaptoethanesulfonate]
OBSERVED: 50.4
//
MOLECULE: [Cl-].[Na+] [NaCl 7.06%, NaCl]
OBSERVED: 12.7
//
MOLECULE: [Cl-].[Na+] [NaCl 3.53%, NaCl]
OBSERVED: 16.3
//
MOLECULE: O=S(=O)([O-])CCS.[Na+] [Mesna 10%, Sodium 2-mercaptoethanesulfonate]
OBSERVED: 20.6
//
MOLECULE: Oc1ccccc1 [Phenol 0.5%, Phenol]
OBSERVED: 11.3

* * *

system: human MRC-5 fibroblasts; experiment: Quantitative evaluation of cytotoxicity, viability assay using MU reagent; assay type: cell-based; conditions: 4 h exposure
# note: exactly 10% is not below, so it is not fulfilled; use fulfilled for percentage of cell viability compared to culture medium (100% of viability) strictly under it

MOLECULE: [Cl-].[Na+] [NaCl 7.06%, NaCl]
CLASSIFICATION: not fulfilled

MOLECULE: [Cl-].[Na+] [NaCl 3.53%, NaCl]
CLASSIFICATION: not fulfilled

MOLECULE: O=S(=O)([O-])CCS.[Na+] [Mesna 5%, Sodium 2-mercaptoethanesulfonate]
CLASSIFICATION: not fulfilled

MOLECULE: O=S(=O)([O-])CCS.[Na+] [Mesna 20%, Sodium 2-mercaptoethanesulfonate]
CLASSIFICATION: fulfilled

MOLECULE: [Cl-].[Na+] [NaCl 1.76%, NaCl]
CLASSIFICATION: not fulfilled

MOLECULE: O=S(=O)([O-])CCS.[Na+] [Mesna 10%, Sodium 2-mercaptoethanesulfonate]
CLASSIFICATION: fulfilled

MOLECULE: Oc1ccccc1
CLASSIFICATION: not fulfilled
